Assay: Antiproliferative activity against NHEK cells incubated for 24 hrs by [3H]thymidine incorporation assay
Format: functional, cell-based
Conditions: Homo sapiens
Reported EC50 values for the following compounds.
measuredQuantity: EC50 (nM)

1) C=C1CC[C@H](O)C/C1=C/C=C1\CCC[C@@]2(C)[C@H]1CC[C@@H]2[C@](C)(O)CCCC(C)C = 4.09
2) C=C1CC[C@H](O)C/C1=C/C=C1\CCC[C@@]2(C)[C@H]1CC[C@@H]2[C@@](C)(O)CCCC(C)C = 0.728
